- Tested on: normotensive dogs
- test.description: Intraocular pressure and ocular surface hyperemia in normotensive dogs
- Type: in vivo, dog
- Parameters: scale not given here
- particulars: 0.1%, once daily for 5 days
Hi, to clarify the labels: criterion met covers maximum OSH score from 0.8 upward, criterion not met covers anything below 0.8.

[ask] Decide: maximum OSH score of CC(C)OC(=O)CCC/C=C\C[C@@H]1[C@@H](COc2cccc(C(F)(F)F)c2)[C@H](O)C[C@H]1Cl [Example 42i] >= 0.8?
[reply] criterion not met

[ask] Subsequent entry: O=C(O)CCC/C=C\C[C@@H]1[C@@H](COc2cc(Cl)cc(Cl)c2)[C@H](O)C[C@H]1Cl [Example 15b]
[reply] criterion met

[ask] Subsequent entry: O=C(O)CCC/C=C\C[C@@H]1[C@@H](COc2cccc(C(F)(F)F)c2)[C@H](O)C[C@H]1Cl
[reply] criterion not met

[ask] Subsequent entry: Cc1cc(C)cc(OC[C@@H]2[C@@H](C/C=C\CCCC(=O)O)[C@H](Cl)C[C@H]2O)c1
[reply] criterion met

[ask] Subsequent entry: O=C(O)CCC/C=C\C[C@@H]1[C@@H](COc2cc(C(F)(F)F)cc(C(F)(F)F)c2)[C@H](O)C[C@H]1Cl
[reply] criterion met

[ask] Subsequent entry: Cc1cc(C)cc(OC[C@@H]2[C@@H](C/C=C\CCCC(=O)OC(C)C)[C@H](Cl)C[C@H]2O)c1 [Example 42u]
[reply] criterion met

[ask] Subsequent entry: O=C(O)CCC/C=C\C[C@@H]1[C@@H](COc2ccc(CO)cc2)[C@H](O)C[C@H]1Cl
[reply] criterion not met

[ask] Subsequent entry: CC(C)OC(=O)CCC/C=C\C[C@@H]1[C@@H](COc2ccc(CO)cc2)[C@H](O)C[C@H]1Cl [Example 42bb]
[reply] criterion not met

* * *

- Test system: normotensive dogs
- test.description: Intraocular pressure and ocular surface hyperemia in normotensive dogs
- Assay type: in vivo, dog
- particulars: Canis lupus familiaris, topical, 120 h, 0.1%, once daily for 5 days, read-out: maximum IOP decrease from baseline
Hi, to clarify the labels: Fulfilled covers change in vivo at 0.1 % from 30% upward, Not fulfilled covers anything below 30%.

[ask] Decide: change in vivo at 0.1 % of O=C(O)CCC/C=C\C[C@@H]1[C@@H](COc2cccc3ccccc23)[C@H](O)C[C@H]1Cl [Example 19] >= 30%?
[reply] Fulfilled

[ask] Subsequent entry: CC(C)OC(=O)CCC/C=C\C[C@@H]1[C@@H](COc2ccc(CO)cc2)[C@H](O)C[C@H]1Cl [Example 42bb]
[reply] Fulfilled

[ask] Subsequent entry: O=C(O)CCC/C=C\C[C@@H]1[C@@H](COc2ccc(CO)cc2)[C@H](O)C[C@H]1Cl [Example 43]
[reply] Not fulfilled

[ask] Subsequent entry: O=C(O)CCC/C=C\C[C@@H]1[C@@H](COc2cc(C(F)(F)F)cc(C(F)(F)F)c2)[C@H](O)C[C@H]1Cl [Example 15]
[reply] Fulfilled

[ask] Subsequent entry: CC(C)OC(=O)CCC/C=C\C[C@@H]1[C@@H](COc2cccc(C(F)(F)F)c2)[C@H](O)C[C@H]1Cl [Example 42i]
[reply] Not fulfilled

[ask] Subsequent entry: O=C(O)CCC/C=C\C[C@@H]1[C@@H](COc2cc(Cl)cc(Cl)c2)[C@H](O)C[C@H]1Cl [Example 15b]
[reply] Fulfilled

[ask] Subsequent entry: Cc1cc(C)cc(OC[C@@H]2[C@@H](C/C=C\CCCC(=O)O)[C@H](Cl)C[C@H]2O)c1 [Example 36]
[reply] Fulfilled

[ask] Subsequent entry: O=C(O)CCC/C=C\C[C@@H]1[C@@H](COc2cccc(C(F)(F)F)c2)[C@H](O)C[C@H]1Cl [Example 24]
[reply] Not fulfilled

* * *

- measurement.target: hEP2 (Homo sapiens)
- Sequence (P43116 whole entry): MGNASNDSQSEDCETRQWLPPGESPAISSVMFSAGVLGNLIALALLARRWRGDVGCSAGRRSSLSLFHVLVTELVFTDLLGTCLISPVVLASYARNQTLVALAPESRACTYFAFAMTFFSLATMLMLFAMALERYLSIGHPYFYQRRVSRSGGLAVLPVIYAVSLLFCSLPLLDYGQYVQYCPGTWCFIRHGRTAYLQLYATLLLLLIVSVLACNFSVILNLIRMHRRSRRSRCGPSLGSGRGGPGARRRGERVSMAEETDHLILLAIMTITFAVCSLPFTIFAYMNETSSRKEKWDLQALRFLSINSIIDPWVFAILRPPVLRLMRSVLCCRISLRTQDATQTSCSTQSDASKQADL
- test.description: FLIPR calcium signal, hEP2
- Type: cell-based
- Design: expressed in transfected cells; host or cells: HEK-293(EBNA)
- particulars: HEK-293(EBNA) cells expressing hEP2/Gqs5
I'd be grateful if you could share measured pEC50 for these entries.
On this scale, pEC50 is minus log10 of a concentration expressed in M (mol/L).

[ask] For O=C(O)CCC/C=C\C[C@@H]1[C@@H](COc2cccc(CCO)c2)[C@H](O)C[C@H]1Cl , what is its reported pEC50?
[reply] 5.71

[ask] Subsequent entry: CC(=O)OCc1cc(Cl)cc(OC[C@@H]2[C@@H](C/C=C\CCCC(=O)O)[C@H](Cl)C[C@H]2O)c1
[reply] 5.95

[ask] Subsequent entry: O=C(O)CCC/C=C\C[C@@H]1[C@@H](COc2ccc(CO)cc2)[C@H](O)C[C@H]1Cl
[reply] 7.36

[ask] Subsequent entry: Cc1cc(C)cc(OC[C@@H]2[C@@H](C/C=C\CCCC(=O)O)[C@H](Cl)C[C@H]2O)c1
[reply] 7.57

[ask] Subsequent entry: Cc1cccc(OC[C@@H]2[C@@H](C/C=C\CCCC(=O)O)[C@H](Cl)C[C@H]2O)c1C
[reply] 7.21

[ask] Subsequent entry: O=C(O)CCC/C=C\C[C@@H]1[C@@H](COc2cccc3c2CCC3O)[C@H](O)C[C@H]1Cl (stereo partly shown)
[reply] 6.97

* * *

- measurement.target: UniProt:P43116
- test.description: cAMP assay, hEP2
- Assay type: cell-based
Each entry falls into one class according to its EC50; the ranges are low range: < 3 nM; mid range: ≥ 3 nM and < 30 nM; high range: ≥ 30 nM

[ask] Please let me know in which category the item COc1cccc(OC[C@@H]2[C@@H](C/C=C\CCCC(=O)O)[C@H](Cl)C[C@H]2O)c1 belongs.
[reply] mid range

[ask] Subsequent entry: Cc1cc(OC[C@@H]2[C@@H](C/C=C\CCCC(=O)O)[C@H](Cl)C[C@H]2O)cc(C)c1CO
[reply] low range

[ask] Subsequent entry: CCCC(O)c1ccc(OC[C@@H]2[C@@H](C/C=C\CCCC(=O)O)[C@H](Cl)C[C@H]2O)cc1 (stereo partly drawn)
[reply] high range

[ask] Subsequent entry: Cc1cc(C)cc(OC[C@@H]2[C@@H](C/C=C\CCCC(=O)O)[C@H](Cl)C[C@H]2O)c1
[reply] low range

[ask] Subsequent entry: CC(C)c1cccc(OC[C@@H]2[C@@H](C/C=C\CCCC(=O)O)[C@H](Cl)C[C@H]2O)c1
[reply] mid range

[ask] Subsequent entry: O=C(O)CCC/C=C\C[C@@H]1[C@@H](COc2ccccc2Cl)[C@H](O)C[C@H]1Cl
[reply] high range

[ask] Subsequent entry: O=C(O)CCC/C=C\C[C@@H]1[C@@H](COc2cccc(C(O)Cc3ccccc3)c2)[C@H](O)C[C@H]1Cl (stereo partly drawn)
[reply] high range

[ask] Subsequent entry: O=C(O)CCC/C=C\C[C@@H]1[C@@H](COc2cccc3ccccc23)[C@H](O)C[C@H]1Cl
[reply] low range

[ask] Subsequent entry: Cc1cc(OC[C@@H]2[C@@H](C/C=C\CCCC(=O)O)[C@H](Cl)C[C@H]2O)cc(C)c1C
[reply] low range

[ask] Subsequent entry: Cc1ccc(OC[C@@H]2[C@@H](C/C=C\CCCC(=O)O)[C@H](Cl)C[C@H]2O)cc1C
[reply] mid range

[ask] Subsequent entry: O=C(O)CCC/C=C\C[C@@H]1[C@@H](COc2cc(C(F)(F)F)cc(Cl)c2F)[C@H](O)C[C@H]1Cl
[reply] low range

[ask] Subsequent entry: O=C(O)CCC/C=C\C[C@@H]1[C@@H](COc2cc(C(F)(F)F)cc(C(F)(F)F)c2)[C@H](O)C[C@H]1Cl
[reply] mid range

[ask] Subsequent entry: COCc1c(C)cc(OC[C@@H]2[C@@H](C/C=C\CCCC(=O)O)[C@H](Cl)C[C@H]2O)cc1C
[reply] mid range

[ask] Subsequent entry: CCCCCC(O)c1ccc(OC[C@@H]2[C@@H](C/C=C\CCCC(=O)O)[C@H](Cl)C[C@H]2O)cc1 (stereo partly drawn)
[reply] high range

[ask] Subsequent entry: O=C(O)CCC/C=C\C[C@@H]1[C@@H](COc2cccc3c2CCC3O)[C@H](O)C[C@H]1Cl (stereo partly drawn)
[reply] low range

[ask] Subsequent entry: CC(=O)OCc1cc(Cl)cc(OC[C@@H]2[C@@H](C/C=C\CCCC(=O)O)[C@H](Cl)C[C@H]2O)c1
[reply] mid range

[ask] Subsequent entry: O=C(O)CCC/C=C\C[C@@H]1[C@@H](COc2cccc(CCO)c2)[C@H](O)C[C@H]1Cl
[reply] mid range

[ask] Subsequent entry: CC(C)(C)c1cccc(OC[C@@H]2[C@@H](C/C=C\CCCC(=O)O)[C@H](Cl)C[C@H]2O)c1
[reply] high range

[ask] Subsequent entry: Cc1ccc(C)c(OC[C@@H]2[C@@H](C/C=C\CCCC(=O)O)[C@H](Cl)C[C@H]2O)c1
[reply] low range

[ask] Subsequent entry: O=C(O)CCCCCC[C@@H]1[C@@H](COc2ccc3ccccc3c2)[C@H](O)C[C@H]1Cl
[reply] high range

[ask] Subsequent entry: Cc1cccc(OC[C@@H]2[C@@H](C/C=C\CCCC(=O)O)[C@H](Cl)C[C@H]2O)c1
[reply] mid range

[ask] Subsequent entry: O=C(O)CCC/C=C\C[C@@H]1[C@@H](COc2cccc(O)c2)[C@H](O)C[C@H]1Cl
[reply] mid range

[ask] Subsequent entry: O=C(O)CCCCCC[C@@H]1[C@@H](COc2cccc3ccccc23)[C@H](O)C[C@H]1Cl
[reply] mid range

[ask] Subsequent entry: O=C(O)CCC/C=C\C[C@@H]1[C@@H](COc2cccc(CO)c2)[C@H](O)C[C@H]1Cl
[reply] mid range

[ask] Subsequent entry: O=C(O)CCC/C=C\C[C@@H]1[C@@H](COc2cc(Cl)cc(CO)c2)[C@H](O)C[C@H]1Cl
[reply] low range

[ask] Subsequent entry: Cc1ccc(OC[C@@H]2[C@@H](C/C=C\CCCC(=O)O)[C@H](Cl)C[C@H]2O)c(C)c1
[reply] high range

[ask] Subsequent entry: O=C(O)CCC/C=C\C[C@@H]1[C@@H](COc2cccc(C(F)(F)F)c2)[C@H](O)C[C@H]1Cl
[reply] low range

[ask] Subsequent entry: O=C(O)CCC/C=C\C[C@@H]1[C@@H](COc2cccc3c2CCC3=O)[C@H](O)C[C@H]1Cl
[reply] mid range

[ask] Subsequent entry: CCCC(OC)c1ccc(OC[C@@H]2[C@@H](C/C=C\CCCC(=O)O)[C@H](Cl)C[C@H]2O)cc1 (stereo partly drawn)
[reply] high range
